procedure_details: BSK_hDFCGF_Proliferation: Cell Proliferation Assessment in the BioMAP Diversity Plus: hDFCGF Assay (AID 2283059);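 note: curves fitted for both rise and fall of signal versus DMSO baseline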
reported_conditions: primary human foreskin fibroblasts
Activity calls are given as the source filed them. Rule for the calls: active = hit-call score of the fitted dose curve at least 0.9, where 1 is the maximum; inactive = score below 0.9.
endpoint_label: AC50

[[record]]
compound = "CCCCOC(=O)CCCCCCCC(=O)OCCCC"
result = "inactive"

[[record]]
compound = "CCCCCCCCCCCCCCCC(=O)OC/C=C(C)/C=C/C=C(C)/C=C/C1=C(C)CCCC1(C)C"
result = "27.7 µM (active)"

[[record]]
compound = "CCC(C)c1cc([N+](=O)[O-])cc([N+](=O)[O-])c1OC(=O)OC(C)C (stereo unspecified)"
result = "4.37 µM (active)"

[[record]]
compound = "O=C1c2ccccc2C(=O)c2c(O)ccc(O)c21"
result = "3.14 µM (active)"

[[record]]
compound = "Oc1c(Cl)cc(Cl)c(Cl)c1Cc1c(O)c(Cl)cc(Cl)c1Cl"
result = "0.113 µM (active)"

[[record]]
compound = "CC1(C)C2=CCCC(C)(C)[C@]23CC[C@H]1C3"
result = "8.84 µM (active)"

[[record]]
compound = "CCCCN(CCCC)C(=O)N(CCCC)CCCC"
result = "3.96 µM (active)"

[[record]]
compound = "C=C(C)C(=O)OCC(CC)(COC(=O)C(=C)C)COC(=O)C(=C)C"
result = "26.5 µM (active)"

[[record]]
compound = "CCN(CC)C(=O)N(CC)CC"
result = "inactive"

[[record]]
compound = "CC=Cc1ccc(OCC)c(O)c1"
result = "inactive"

[[record]]
compound = "CC(C=O)Cc1ccc(C(C)(C)C)cc1 (stereo unspecified)"
result = "29.1 µM (active)"

[[record]]
compound = "CS(=O)(=O)c1ccc(C2=C(c3ccccc3)C(=O)OC2)cc1"
result = "inactive"

[[record]]
compound = "C1=CC2C3C=CC(C3)C2C1 (stereo unspecified)"
result = "inactive"

[[record]]
compound = "Cc1cc(CCC(=O)OCCOCCOCCOC(=O)CCc2cc(C)c(O)c(C(C)(C)C)c2)cc(C(C)(C)C)c1O"
result = "22.8 µM (active)"

[[record]]
compound = "COc1cc(Cl)c(OC)cc1N"
result = "inactive"

[[record]]
compound = "CC(=O)c1c(C)c([N+](=O)[O-])c(C(C)(C)C)c([N+](=O)[O-])c1C"
result = "inactive"

[[record]]
compound = "CSCCC=O"
result = "inactive"

[[record]]
compound = "CC(C)(C)CC(C)(C)c1ccc(OCCOCC[N+](C)(C)Cc2ccccc2)cc1"
result = "0.496 µM (active)"

[[record]]
compound = "c1ccc(Oc2ccccc2)cc1"
result = "inactive"

[[record]]
compound = "CC(CN=Cc1ccccc1O)N=Cc1ccccc1O (stereo unspecified)"
result = "inactive"

[[record]]
compound = "COc1ccc(CCN2CCC(Nc3nc4ccccc4n3Cc3ccc(F)cc3)CC2)cc1"
result = "5.42 µM (active)"

[[record]]
compound = "CCCCCC(C=O)=Cc1ccccc1"
result = "31.4 µM (active)"

[[record]]
compound = "CN(C)C(=O)Nc1ccc(Oc2ccc(Cl)cc2)cc1"
result = "inactive"

[[record]]
compound = "Clc1cc(Cl)c(-c2c(Cl)c(Cl)cc(Cl)c2Cl)cc1Cl"
result = "3.7 µM (active)"

[[record]]
compound = "O=C(Nc1ccc2c(O)c(N=Nc3ccc(N=Nc4ccc(S(=O)(=O)O)cc4)cc3)c(S(=O)(=O)O)cc2c1)c1ccccc1"
result = "inactive"

[[record]]
compound = "CN(C)C(=S)SC(=S)N(C)C"
result = "30.2 µM (active)"


###

tested_system: Aryl hydrocarbon receptor (Homo sapiens) (UniProt P35869)
Sequence (P35869 whole entry, looked up): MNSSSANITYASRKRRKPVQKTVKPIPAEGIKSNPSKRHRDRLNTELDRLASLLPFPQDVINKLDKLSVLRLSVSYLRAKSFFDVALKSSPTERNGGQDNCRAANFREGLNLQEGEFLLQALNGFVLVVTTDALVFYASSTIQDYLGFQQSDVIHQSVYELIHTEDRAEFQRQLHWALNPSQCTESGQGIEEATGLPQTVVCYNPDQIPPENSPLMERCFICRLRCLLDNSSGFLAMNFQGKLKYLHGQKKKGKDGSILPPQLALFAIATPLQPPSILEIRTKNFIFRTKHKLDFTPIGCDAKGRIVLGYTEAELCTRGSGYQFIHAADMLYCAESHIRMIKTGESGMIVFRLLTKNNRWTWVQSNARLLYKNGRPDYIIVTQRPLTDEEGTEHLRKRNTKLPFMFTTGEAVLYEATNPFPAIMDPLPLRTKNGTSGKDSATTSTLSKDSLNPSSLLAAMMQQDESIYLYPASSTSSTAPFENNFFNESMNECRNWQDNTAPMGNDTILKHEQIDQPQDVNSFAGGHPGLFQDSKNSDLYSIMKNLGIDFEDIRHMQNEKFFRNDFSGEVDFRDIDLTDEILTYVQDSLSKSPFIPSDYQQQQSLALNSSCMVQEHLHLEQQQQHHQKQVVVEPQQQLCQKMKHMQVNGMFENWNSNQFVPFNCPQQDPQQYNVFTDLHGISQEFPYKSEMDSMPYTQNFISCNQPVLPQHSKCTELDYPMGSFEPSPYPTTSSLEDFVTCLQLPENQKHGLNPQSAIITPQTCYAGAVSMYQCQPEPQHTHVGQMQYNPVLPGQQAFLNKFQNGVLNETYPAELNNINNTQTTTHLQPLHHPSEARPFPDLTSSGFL
procedure_details: ATG_Ahr_CIS: Attagene CIS-FACTORIAL HepG2 Assay for human Aryl Hydrocarbon Receptor (Ahr) (AID 2282930)
reported_conditions: HepG2 AhR cis-factorial reporter transcription; actives raise or lower the signal
Calls of active or inactive are those of the source. The calls were made as follows: active = hit-call score of the fitted dose curve at least 0.9, where 1 is the maximum; inactive = score below 0.9.
Labels: active, inactive

[[record]]
molecule = "CCCCC(CC)C(=O)OC(C)C (configuration not stated)"
label_value = "inactive"

[[record]]
molecule = "CCOc1ccc(NC(=O)CC(C)O)cc1 (configuration not stated)"
label_value = "inactive"

[[record]]
molecule = "C=COCCOCCOC=C"
label_value = "inactive"

[[record]]
molecule = "CCCCCCCCCCCCN1CCCCCC1=O"
label_value = "inactive"

[[record]]
molecule = "C1CCOC1"
label_value = "inactive"

[[record]]
molecule = "FC(F)(F)COCC(F)(F)F"
label_value = "inactive"

[[record]]
molecule = "O=C(O)c1ccc(O)cc1"
label_value = "inactive"

[[record]]
molecule = "C=C(C)C(=O)OCCOC1CC2CC1C1C=CCC21 (configuration not stated)"
label_value = "inactive"

[[record]]
molecule = "CCCCCCCC/C=C\\CCCCCCCC(=O)OCC"
label_value = "inactive"

[[record]]
molecule = "CCN(CCC#N)c1ccc(N=Nc2ccc([N+](=O)[O-])cc2)cc1"
label_value = "inactive"

[[record]]
molecule = "CC(=O)Nc1ccc(C(=O)CCl)cc1"
label_value = "inactive"

[[record]]
molecule = "OCC(O)c1ccccc1 (configuration not stated)"
label_value = "inactive"

[[record]]
molecule = "C#CC(C)N(C)C(=O)Nc1ccc(Cl)cc1 (configuration not stated)"
label_value = "inactive"

[[record]]
molecule = "CCCCC(CC)COC(C)=O (configuration not stated)"
label_value = "inactive"

[[record]]
molecule = "CCc1cc(Cc2cc(CC)cc(C(C)(C)C)c2O)c(O)c(C(C)(C)C)c1"
label_value = "inactive"

[[record]]
molecule = "CC(=O)C(C)O (configuration not stated)"
label_value = "inactive"

[[record]]
molecule = "CCOC(=O)COC(=O)c1cc(Oc2ccc(C(F)(F)F)cc2Cl)ccc1[N+](=O)[O-]"
label_value = "inactive"

[[record]]
molecule = "O=C(O)CNc1ccccc1"
label_value = "active"

[[record]]
molecule = "Nc1ccc(NCCO)c([N+](=O)[O-])c1"
label_value = "active"

[[record]]
molecule = "CCCCC(CC)COC(=O)c1ccc(O)cc1 (configuration not stated)"
label_value = "inactive"

[[record]]
molecule = "CCCC(=O)C(CC)Sc1ccoc1C (configuration not stated)"
label_value = "inactive"

[[record]]
molecule = "COC(=O)Nc1ccc(Cl)c(Cl)c1"
label_value = "active"

[[record]]
molecule = "CC1=NN(c2ccc(S(=O)(=O)O)cc2)C(=O)C1"
label_value = "inactive"

[[record]]
molecule = "CCOC(=O)CN"
label_value = "inactive"

[[record]]
molecule = "CCCC(C)C(O)CC (configuration not stated)"
label_value = "inactive"

[[record]]
molecule = "CCc1cc(C(C)(C)C)c(O)c(C(C)(C)C)c1"
label_value = "inactive"

[[record]]
molecule = "c1ccc2[nH]cnc2c1"
label_value = "inactive"

[[record]]
molecule = "CCCCC1CCC(O)CC1 (configuration not stated)"
label_value = "inactive"

[[record]]
molecule = "CCCSc1ccc2nc(NC(=O)OC)[nH]c2c1"
label_value = "inactive"

[[record]]
molecule = "CCCCCCCCN1CCCC1=O"
label_value = "inactive"

[[record]]
molecule = "CCCCCCCCSCCO"
label_value = "inactive"

[[record]]
molecule = "CCCN(CCC)S(=O)(=O)c1ccc(C(=O)O)cc1"
label_value = "inactive"


###

Read-out: Vascular cell adhesion molecule 1 (VCAM1), VCAM1 (gene 7412)
procedure_details: BSK_MyoF_VCAM1: BioMAP Diversity Plus: MyoF Assay for Vascular cell adhesion molecule 1 (VCAM1) Biomarker Activity (AID 2284231)
reported_conditions: primary human lung fibroblasts
The source made the active and inactive calls. How the source made its calls: active means hit-call score of the fitted dose curve at least 0.9, where 1 is the maximum; inactive means score below 0.9.
Classes used: active, inactive

[[record]]
compound = "O=C1c2ccccc2C(=O)c2c(O)ccc(O)c21"
label_value = "inactive"

[[record]]
compound = "IC(I)I"
label_value = "inactive"

[[record]]
compound = "Cc1cc(CCC(=O)OCCOCCOCCOC(=O)CCc2cc(C)c(O)c(C(C)(C)C)c2)cc(C(C)(C)C)c1O"
label_value = "inactive"

[[record]]
compound = "CN(C)C(=S)SC(=S)N(C)C"
label_value = "active"

[[record]]
compound = "COc1cc(Cl)c(OC)cc1N"
label_value = "inactive"

[[record]]
compound = "CC(C)(C)CC(C)(C)c1ccc(OCCOCC[N+](C)(C)Cc2ccccc2)cc1"
label_value = "active"

[[record]]
compound = "CC(=O)Nc1ccc(C(=O)CCl)cc1"
label_value = "active"

[[record]]
compound = "Oc1c(Cl)cc(Cl)c(Cl)c1Cc1c(O)c(Cl)cc(Cl)c1Cl"
label_value = "active"

[[record]]
compound = "c1ccc2cc(Nc3ccc(Nc4ccc5ccccc5c4)cc3)ccc2c1"
label_value = "inactive"

[[record]]
compound = "c1ccc(CCc2ccccc2)cc1"
label_value = "active"

[[record]]
compound = "CC(C=O)Cc1ccc(C(C)(C)C)cc1 (stereo not drawn)"
label_value = "inactive"

[[record]]
compound = "Clc1cc(Cl)c(-c2c(Cl)c(Cl)cc(Cl)c2Cl)cc1Cl"
label_value = "active"

[[record]]
compound = "CCCCOC(=O)CCCCCCCC(=O)OCCCC"
label_value = "inactive"

[[record]]
compound = "CC1(C)C2=CCCC(C)(C)[C@]23CC[C@H]1C3"
label_value = "active"

[[record]]
compound = "O=C1OC2(c3ccccc31)c1ccc(O)c(Br)c1Oc1c2ccc(O)c1Br"
label_value = "inactive"

[[record]]
compound = "C=C(C)C(=O)OCCOCCOCCOC(=O)C(=C)C"
label_value = "inactive"

[[record]]
compound = "CCCCCCCCCCCCCCCC(=O)OC/C=C(C)/C=C/C=C(C)/C=C/C1=C(C)CCCC1(C)C"
label_value = "inactive"

[[record]]
compound = "CC(C)(N=C=O)c1cccc(C(C)(C)N=C=O)c1"
label_value = "inactive"

[[record]]
compound = "C1=CC2C3C=CC(C3)C2C1 (stereo not drawn)"
label_value = "inactive"

[[record]]
compound = "CCCCN(CCCC)C(=O)N(CCCC)CCCC"
label_value = "active"

[[record]]
compound = "C=C(C)[C@H]1CC=C(C)C(=O)C1"
label_value = "inactive"

[[record]]
compound = "CS(=O)(=O)c1ccc(C2=C(c3ccccc3)C(=O)OC2)cc1"
label_value = "inactive"

[[record]]
compound = "COc1ccc(OC)c(N=Nc2c(O)ccc3ccccc23)c1"
label_value = "active"

[[record]]
compound = "CSCCC=O"
label_value = "inactive"

[[record]]
compound = "CN(c1nccc(=O)[nH]1)C1CCN(c2nc3ccccc3n2Cc2ccc(F)cc2)CC1"
label_value = "active"

[[record]]
compound = "C[C@@H]1CCN(C(=O)[C@H](CCCN=C(N)N)NS(=O)(=O)c2cccc3c2NC[C@H](C)C3)[C@@H](C(=O)O)C1"
label_value = "inactive"

[[record]]
compound = "CC(=O)C1(C)CC2=C(CCCC2(C)C)CC1C (stereo not drawn)"
label_value = "active"

[[record]]
compound = "CC(=O)c1c(C)c([N+](=O)[O-])c(C(C)(C)C)c([N+](=O)[O-])c1C"
label_value = "inactive"


Source of measurements: PubChem BioAssay (EPA / NIEHS)
